Test system: Vero E6 infected with SARS-CoV-2
TEST_DETAILS: morphology score (similarity to uninfected cells); higher = more like uninfected cells
RUN_PARAMETERS: 24 h
This section presents compounds with their documented morphology score values.
Just the number, please.

O=C[C@H](O)[C@@H](O)[C@H](O)CO [xylose] (10 µM)	-0.0367
N#Cc1ccccc1-c1cc(-c2ccccn2)cn(-c2ccccc2)c1=O [Perampanel] (10 µM)	0.11

response.value for CC1=CC(=O)c2ccccc2C1=O [menadione] (10 µM) (field: morphology score) = 0.144

Entry Fc1ccc(CN2CCC(Nc3ccc(C(F)(F)F)nn3)CC2)cc1F (10 µM) — recorded morphology score = -0.198

====

Tested on: Vero E6 infected with SARS-CoV-2
TEST_DETAILS: SARS-CoV-2 infection rate relative to infected DMSO; higher = more infection, active = 60 or less
RUN_PARAMETERS: 24 h
Here, each record is paired with measured SARS-CoV-2 infection rate data.

Cc1c(Cl)cccc1S(=O)(=O)Nc1nc(NCCc2ccccc2)nc2c1CN(Cc1ccccc1)CC2 (10 µM)	94.5% (inactive)
O=C1NS(=O)(=O)c2ccccc21 [saccharin] (10 µM)	106% (inactive)
CCn1cc(C(=O)O)c(=O)c2cnc(N3CCNCC3)nc21 [pipemidic-acid] (10 µM)	102% (inactive)

Lab note: next molecule to report on.
SARS-CoV-2 infection rate recorded for this molecule, CCCC(=O)O[C@]1(C(=O)CO)CC[C@H]2[C@@H]3CCC4=CC(=O)CC[C@]4(C)[C@H]3[C@@H](O)C[C@@]21C [hydrocortisone-butyrate] (10 µM) , is 102% (inactive)

====

Tested on: Vero E6 infected with SARS-CoV-2
TEST_DETAILS: inhibition of SARS-CoV-2 cytopathic effect; higher = more antiviral protection, active = above 15
RUN_PARAMETERS: 10000 nM; 48 h
# reported inhibition of SARS-CoV-2 cytopathic effect; entries follow
Unit % implied. Number only.

Please review the entries below; each comes with its answer.
CCCCC(CC)CNC(=N)NC(=N)NCCCCCCNC(=N)NC(=N)NCC(CC)CCCC (stereo unspecified)	-18.2
O=Nc1c(O)[nH]c2c(Cl)c(Cl)ccc12	-3.64
CN(Cc1cc(Br)cc(Br)c1N)C1CCCCC1	11.6
CC(C)n1nc(C#Cc2ccccc2)c2c(N)ncnc21	3.02
O[C@H]([C@H](O)[C@@H]1CO1)[C@H]1CO1 [dianhydrogalactitol]	2.5

The compound identified as `CC(C)C[C@H](CN)CC(=O)O` registered its inhibition of SARS-CoV-2 cytopathic effect at 0.02

====

Test system: Vero E6 infected with SARS-CoV-2
TEST_DETAILS: inhibition of SARS-CoV-2 cytopathic effect; higher = more antiviral protection, active = above 15
RUN_PARAMETERS: 833.33 nM; 48 h
REPORTED_ENDPOINT: inhibition of SARS-CoV-2 cytopathic effect (%)
Value expressed in %; do not type the unit.

Nc1ncnc2nc(-c3ccc(N4CCOCC4)nc3)cc(-c3cccc(Br)c3)c12	-0.05
CC(C)(C)C1CCc2c(sc(NC(=O)c3ccco3)c2C(=O)O)C1 (centres undefined)	0.8
C[C@H]1C[C@@H]2[C@H]([C@@H](O)C[C@@]3(C)[C@H]2CC[C@]3(O)C(=O)COC(=O)CCC(=O)O)[C@@]2(C)C=CC(=O)C=C12 [methylprednisolone-sodium-succinate]	-0.11

Next:
Entry `N#Cc1cccc(-c2nc(-c3cccnc3)no2)c1` : inhibition of SARS-CoV-2 cytopathic effect on Vero E6 infected with SARS-CoV-2 = -1.08

====

System: Vero E6 infected with SARS-CoV-2
TEST_DETAILS: inhibition of SARS-CoV-2 cytopathic effect; higher = more antiviral protection, active = above 15
RUN_PARAMETERS: 1 nM; 48 h
REPORTED_ENDPOINT: inhibition of SARS-CoV-2 cytopathic effect (%)
Numeric only. Scale: %

As a guide, the following entries are already answered.
C[C@]12C/C(=C/O)C(=O)C[C@@H]1CC[C@@H]1[C@@H]2CC[C@@]2(C)[C@H]1CC[C@]2(C)O	0.88
O=C(O)c1ccc2cc(-c3ccc(O)c(C45CC6CC(CC(C6)C4)C5)c3)ccc2c1	1.24

Memo: `Clc1cccc(/C=N/N=C/c2cccc(Cl)c2)c1` , reported inhibition of SARS-CoV-2 cytopathic effect: 2.78

Measured inhibition of SARS-CoV-2 cytopathic effect of `C[C@]12CC[C@@H]3c4ccc(O)cc4CC[C@H]3[C@@H]1CC[C@@H]2O` : 1.43

Lab book: inhibition of SARS-CoV-2 cytopathic effect of Oc1ccc(OC2CCCCO2)cc1 (stereo not drawn) noted as -1.9

For this molecule ( `C[C@@H](O[C@H]1OCCN(Cc2nn[nH]c2CN(C)C)[C@H]1c1ccc(F)cc1)c1cc(C(F)(F)F)cc(C(F)(F)F)c1` ), measured inhibition of SARS-CoV-2 cytopathic effect is -0.75

The reported inhibition of SARS-CoV-2 cytopathic effect of the molecule `O=C(Nc1ccc(C(=O)O)c(O)c1)c1ccccc1` was 0.82

Notebook: `CCc1cc2c(cc1CC)CC(NC[C@H](O)c1ccc(O)c3[nH]c(=O)ccc13)C2` , inhibition of SARS-CoV-2 cytopathic effect read as -4.02

====

Tested on: Vero E6 infected with SARS-CoV-2
TEST_DETAILS: inhibition of SARS-CoV-2 cytopathic effect; higher = more antiviral protection, active = above 15
RUN_PARAMETERS: 1 nM; 48 h
REPORTED_ENDPOINT: inhibition of SARS-CoV-2 cytopathic effect (%)
Write it as a number; the unit % goes unstated.

In the examples that follow, each entry is paired with its recorded inhibition of SARS-CoV-2 cytopathic effect.
N#Cc1ccc(COC[C@H]2O[C@@H](n3c(NCc4ccc(Cl)c(Cl)c4)nc4c(N)ncnc43)[C@H](O)[C@@H]2O)cc1	2.98
O=C(Nc1cccnc1)c1cc(-c2ccnc(F)c2)ccc1OCc1ccccc1	2.42
Cc1cccc(C(=O)O)c1O [hydroxytoluic-acid]	-9.06
CC(C)CN(C[C@@H](O)[C@H](Cc1ccccc1)NC(=O)O[C@H]1CCOC1)S(=O)(=O)c1ccc(N)cc1 [amprenavir]	-0.22
CC12CCC(C(Br)C1=O)C2(C)C (centres undefined) [3-bromocamphor]	-1.02

get_value(item= O=C(CCCl)NCc1ccccc1 [beclamide] , readout=inhibition of SARS-CoV-2 cytopathic effect) returns -5.2

For Nc1cc2c3ccccc3ccc2c2ccccc12 [6-aminochrysene] the compound record lists inhibition of SARS-CoV-2 cytopathic effect as 1.36

S=C(NCCc1ccccn1)Nc1ccc(Br)cn1 [trovirdine] yielded inhibition of SARS-CoV-2 cytopathic effect of 2

Value of measured inhibition of SARS-CoV-2 cytopathic effect for the entry C[C@]12CC/C(=N\OCCN)C[C@@H]1C(=O)C[C@@H]1[C@@H]2CC[C@]2(C)C(=O)CC[C@@H]12 [istaroxime] : 2.17

CNC(=C[N+](=O)[O-])NCCSCc1ccc(CN(C)C)o1 [ranitidine] has a reported inhibition of SARS-CoV-2 cytopathic effect of 2.45

Just so you know, measured inhibition of SARS-CoV-2 cytopathic effect for `CN1Cc2c(C(=O)OC(C)(C)C)ncn2-c2ccsc2C1=O` came out at 2.57

Value of measured inhibition of SARS-CoV-2 cytopathic effect for the entry CCn1cc(C(=O)O)c(=O)c2cc3c(cc21)OCO3 [oxolinic-acid] : -1.5

So for `CCc1ccc(C2=CC(C)(C)Sc3ccc(C#Cc4ccc(C(=O)O)cc4)cc32)cc1` , the logged inhibition of SARS-CoV-2 cytopathic effect turned out to be 0.1

// recorded inhibition of SARS-CoV-2 cytopathic effect for `O=C(NCc1ccncc1)C12CC3CC(C1)CC(c1ccc(Cl)cc1)(C3)C2` : 2.05

Entry `Cc1ccc(NC(=O)c2cccc(N(C)C)c2)cc1NC(=O)c1ccc(O)cc1` , inhibition of SARS-CoV-2 cytopathic effect reported as -3.41

Sure, the documented inhibition of SARS-CoV-2 cytopathic effect for Nc1ccc(S(=O)(=O)Nc2ccnn2-c2ccccc2)cc1 [sulfaphenazole] is 2

compound O=C(O)c1ccccc1-c1ccc(C(F)(F)F)cc1 [xenalipin] , inhibition of SARS-CoV-2 cytopathic effect observed: -4.08

CC(=O)OCC(=O)[C@@]1(O)CC[C@H]2[C@@H]3CCC4=CC(=O)CC[C@]4(C)[C@H]3C(=O)C[C@@]21C [cortisone-acetate] yielded inhibition of SARS-CoV-2 cytopathic effect of -0.91

# compound CCNC(=O)N1CCN(CCCC(c2ccc(F)cc2)c2ccc(F)cc2)CC1 [amperozide] ; its inhibition of SARS-CoV-2 cytopathic effect = -5.99

====

Test system: Vero E6 infected with SARS-CoV-2
TEST_DETAILS: morphology score (similarity to uninfected cells); higher = more like uninfected cells
RUN_PARAMETERS: 24 h
REPORTED_ENDPOINT: morphology score
Please reply with the value in numeric form only.

# example entries with known answers
C[C@@H](c1nc(-c2ccc(C#N)cc2)cs1)[C@](O)(Cn1cncn1)c1ccc(F)cc1F [ravuconazole] (10 µM)	0.0292
CN1[C@@H]2CC[C@H]1C[C@@H](OC(=O)[C@H](CO)c1ccccc1)C2 [hyoscyamine] (10 µM)	0.139
C(=C\c1ccccc1)/CN1CCN(CCOC(c2ccccc2)c2ccccc2)CC1 (10 µM)	0.33

morphology score reading for CN1CCC(CNc2ccc3ncc(-c4cccc(OC(F)(F)F)c4)n3n2)CC1 (0.833333 µM) : 0.201
